Assay: AUC in rat administered po
Assay type: ADME, organism-based
Conditions: plasma
Numbered stars: 1 amine (or outer) side, 2 acyl side, 3 side chain; on linkers, the order of the positions; unused ones are H or OH. Bridge positions count the residues as written; N and C are the ends. Square brackets hold non-standard residues; d marks the D form. Peptide text beside a SMILES is read from it. Tic(7-O(CH2)6CO) = O=C([C@@H]1Cc2ccc(OCCCCCCC(=O)[*:3])cc2CN1[*:1])[*:2]; X1 = CCCC(N[*:1])C(=O)C(=O)[*:2]; Chg = N[C@H](C(=O)O)C1CCCCC1; Phg = N[C@H](C(=O)O)c1ccccc1
metric: AUC (µM·h)
# number only, unit µM·h dropped from output

QUERY: Return AUC for the following molecule: CCCC(NC(=O)[C@@H]1Cc2ccc3cc2CN1C(=O)[C@H](C1CCCCC1)NC(=O)CCCCCCO3)C(=O)C(=O)NCC(=O)N[C@H](C(=O)N(C)C)c1ccccc1 (stereo partly specified) ([Chg][Tic(7-O(CH2)6CO)][X1]G[Phg]-NMe2; lactam N-2)
RESULT: 0.27

The measured values listed here are drawn from ChEMBL document CHEMBL1147731.
